// growth lookup, one value per entry
Tested on: SN12C renal
assayName: NCI-60 one-dose screen, 48 h (100 = growth as untreated, 0 = no growth, -100 = all killed)
measurementSetup: 10 µM unless noted
The panel holds about 83,000 compounds, 20% with a hit somewhere; the sample as a whole holds those more often.

smi	growth / %
C=C(C)C(=O)Nc1ccc(NC(C)C)cc1	121
CCN1CCN(c2nc(NCCCNc3ccnc4cc(Cl)ccc34)c3ccccc3n2)CC1	48.2
N#C/C(=C\c1ccc(-c2ccc(Cl)c(Cl)c2)o1)c1nc(-c2ccco2)cs1	98.6
C=CC(=O)Nc1cccc(-c2nc(SC)nc(NCCN3CCOCC3)c2C#N)c1	81.2
NC(N)=N/N=C(/c1ccccc1)c1ccc(F)cc1	17.2

----------
Tested on: MALME-3M melanoma
assayName: NCI-60 one-dose screen, 48 h (100 = growth as untreated, 0 = no growth, -100 = all killed)
measurementSetup: 10 µM unless noted
This is part of a sample that, as a whole, favours compounds with a hit. Of some 83,000 tested, about 20% had one in any assay.
// reported growth for each item listed
measurementLabel: growth (%)

smi	unitOfMeasurement	measuredNumber
O=C(N(c1ccccc1)c1ccccc1)n1ccc2nc(Cl)nc(Cl)c21	%	58.6
CN(C)[C@@H]1C(=O)C(C(=O)NCc2nc3[nH]cnc(=S)c3[nH]2)=C(O)[C@@]2(O)C(=O)C3=C(O)c4c(O)cccc4[C@@](C)(O)[C@H]3C[C@@H]12	%	69.4
COc1cc(-c2nn(-c3ccc(C(=O)O)cc3)cc2C(=O)O)ccc1O	%	57.1
Clc1ccc2nc3nc4ccc[nH]c4cc3c2c1	%	87.2

----------
Tested on: KM12 colon
assayName: NCI-60 one-dose screen, 48 h
measurementSetup: 10 µM unless noted
This is part of a sample that, as a whole, favours compounds with a hit. Of some 83,000 tested, about 20% had one in any assay. Activity calls are given as the source filed them. Rule for the calls: active = growth percent below 10; inactive = the rest.
Classes used: 1.0 = active, 0.0 = inactive

compound	discreteLabel
COc1cc(-c2nc3ccccc3[nH]2)ccc1OCC(=O)N=Nc1c(O)[nH]c2ccc(Cl)cc12	1.0
Clc1ccc2c(NCCNc3nc(N4CCCCC4)nc4ccccc34)ccnc2c1	1.0
O=c1cc(/C(=C2/C=CC=N2)c2ccc[nH]2)c2cc(Cl)ccc2o1	0.0
C=C1c2nc3ccccc3n2C=C(c2cccc(Cl)c2)N1Cc1ccc(OC)cc1	0.0
COc1ccc(C(=O)COc2cccc(/C=C3\CSc4ccccc4C3=O)c2)cc1	1.0
CN1C(=O)C2(SCC(C(=O)NCc3ccccc3)N2C(=O)C2CCCCC2)c2ccccc21 (stereo not given)	0.0
O=C1/C(=C(/c2ccccc2)N2CCOCC2)Cc2ccccc21	0.0
CN(C)c1ccc(N=Nc2ccccn2)c(O)c1	0.0
C=CC(=O)Nc1cccc(-c2nc(SC)nc(NCCN3CCOCC3)c2C#N)c1	0.0
O=C(N/N=C/c1c[nH]c2ccccc12)c1cc(-c2ccccc2)on1	0.0
CCn1c(O)c(/C=N/NC(=O)C(C)c2ccc(CC(C)C)cc2)sc1=S (stereo not given)	0.0
Cc1nc(Nc2ccc(F)c(Cl)c2)sc1C(=O)O	1.0
Clc1ccc2nc3nc4ccc[nH]c4cc3c2c1	0.0
COc1cc(CNc2oc(-c3ccccc3)c(-c3ccccc3)c2C#N)cc(CN2CCN(C)CC2)c1O	0.0
C(=N/Nc1ncc(-c2cc3cc(-c4ccccc4)ccc3o2)s1)/c1cccs1	0.0
